Exercise: for every item that follows, state its recorded inhibition.
# studySystem: Hexose transporter 1 (Plasmodium falciparum)
# experimentSummary: ST_JUDE_LEISH: Cytotoxicity at 2uM final concentration against transgenic Leishmania Mexicana promastigotes LmPfHT that are glucose transport deficient and complemented with the Plasmodium falciparum hexose transporter. Activity is measured by DNA content using SYBR green in vitro
# Assay type: functional
Just the number please, in %, no unit attached.

Here `Cc1ccc(O)cc1Nc1ccnc2cc(-c3csc(CNCCN4CCOCC4)n3)ccc12` was tested on Hexose transporter 1 (Plasmodium falciparum), and its inhibition came to 0.86

Here Cc1cccc(OC(C)C(=O)Nc2cc(C(F)(F)F)ccc2N2CCOCC2)c1 (centres undefined) was tested on Hexose transporter 1 (Plasmodium falciparum), and its inhibition came to 3.02

Here `Cc1ccc2nc(N(CCCn3ccnc3)C(=O)C=Cc3cccs3)sc2c1` was tested on Hexose transporter 1 (Plasmodium falciparum), and its inhibition came to 1.84

Here `Cc1ccc(S(=O)(=O)Nc2ccc(Nc3nccc(Nc4cccc5[nH]ncc45)n3)cc2)cc1` was tested on Hexose transporter 1 (Plasmodium falciparum), and its inhibition came to 2.62

Here `CCCNCc1ccc(-c2ccc(CN(CCOC)C(=O)CCC(=O)c3ccc(OC)c(F)c3)cc2)nc1` was tested on Hexose transporter 1 (Plasmodium falciparum), and its inhibition came to 3.36

Here `Cc1ccc2[nH]c(C)cc(=NN=Cc3cccc(Cl)c3)c2c1` was tested on Hexose transporter 1 (Plasmodium falciparum), and its inhibition came to 0.92

Here `Cc1cc(-c2ccc(CNC3Cc4ccccc4C3)cc2)ccc1S(=O)(=O)NCCN1CCCC1` was tested on Hexose transporter 1 (Plasmodium falciparum), and its inhibition came to 30.9

Here `Cc1cccc2nc(-c3ccc(-c4cccc(NC(=O)Nc5ccc(F)c(F)c5F)c4)cc3)[nH]c12` was tested on Hexose transporter 1 (Plasmodium falciparum), and its inhibition came to 3.05

Here `COc1cc(C2CCN(CCCCNC(=O)c3ccc(NC(=O)c4ccc(Cl)c(Cl)c4)cc3)CC2)ccc1OC(C)C` was tested on Hexose transporter 1 (Plasmodium falciparum), and its inhibition came to 4.29

Here `CCn1c(-c2nonc2N)nc2cnc(Oc3cccc(NC(=O)c4ccc(OCCN5CCCC5)cc4)c3)cc21` was tested on Hexose transporter 1 (Plasmodium falciparum), and its inhibition came to 9.98

Here `COc1cc2nc(-c3ccc(Br)cc3)cc(N)c2cc1OC` was tested on Hexose transporter 1 (Plasmodium falciparum), and its inhibition came to 23.6

Here `O=S(=O)(c1cc(Cl)ccc1Cl)N1CCCCC(c2ccc(C(F)(F)F)cc2)=N1` was tested on Hexose transporter 1 (Plasmodium falciparum), and its inhibition came to 2.66

Here `O=C(NC1CCCCC1)c1ccc(O)c(-c2cccc(C(F)(F)F)c2)c1` was tested on Hexose transporter 1 (Plasmodium falciparum), and its inhibition came to 2

Here COc1ccccc1N1CCN(C(C(=O)NCc2ccc3c(c2)OCO3)c2ccc3c(c2)OCCCO3)CC1 (centres undefined) was tested on Hexose transporter 1 (Plasmodium falciparum), and its inhibition came to 1.04

Here `COc1cc2nc(N3CCC(c4ccccc4)CC3)nc(NCc3ccc(=O)[nH]c3)c2cc1OC` was tested on Hexose transporter 1 (Plasmodium falciparum), and its inhibition came to 1.5

Here `O=C(NCCN1CCC(c2ccncc2)CC1)c1ccc(Nc2nccc(Nc3ccc(Oc4ccccc4)cc3)n2)cc1` was tested on Hexose transporter 1 (Plasmodium falciparum), and its inhibition came to -0.94

Here `O=C(Nc1ccc(Oc2ccccc2)cc1)N(Cc1ccc(-c2cccc(CN3CCNCC3)c2)cc1)C1CCN(Cc2ccccc2)CC1` was tested on Hexose transporter 1 (Plasmodium falciparum), and its inhibition came to 3.12

Here `CCC(=O)Nc1ccc(Nc2nc(C)cc(N3CCCC3)n2)cc1` was tested on Hexose transporter 1 (Plasmodium falciparum), and its inhibition came to 12.4

Here `CN(C)C1CCN(Cc2ccc(N3CCN(Cc4cccc5[nH]ccc45)CC3)nc2)CC1` was tested on Hexose transporter 1 (Plasmodium falciparum), and its inhibition came to 1.46
